Data origin: paper PMC8236452

# protocol.details: Plasma pharmacokinetics after a single oral dose of rucaparib 600 mg in patients with advanced solid tumors, by hepatic function group
# test.parameters: human, plasma, po, 600 mg, tmax, Median (min–max), NCI-ODWG moderate hepatic impairment; single oral rucaparib 600 mg
observed.property: Tmax (h)
Please state the figure in h; there is no need to write the unit.

In: # get_value(readout='Tmax', item= CNCc1ccc(-c2[nH]c3cc(F)cc4c3c2CCNC4=O)cc1 [rucaparib] )
Out: 3.96

====

# protocol.details: Plasma pharmacokinetics after a single oral dose of rucaparib 600 mg in patients with advanced solid tumors, by hepatic function group
# test.parameters: human, plasma, po, 600 mg, t1/2, Mean (SD), Child–Pugh severe hepatic impairment; single oral rucaparib 600 mg
observed.property: half-life (h)
Please state the figure in h; there is no need to write the unit.

In: # get_value(readout='half-life', item= CNCc1ccc(-c2[nH]c3cc(F)cc4c3c2CCNC4=O)cc1 )
Out: 47.8
